In this section we review reported pIC50 values for a set of compounds.
# Assay Target: Recombinant human HSD17B13 enzyme (Homo sapiens)
# Sequence (Q7Z5P4 20-300): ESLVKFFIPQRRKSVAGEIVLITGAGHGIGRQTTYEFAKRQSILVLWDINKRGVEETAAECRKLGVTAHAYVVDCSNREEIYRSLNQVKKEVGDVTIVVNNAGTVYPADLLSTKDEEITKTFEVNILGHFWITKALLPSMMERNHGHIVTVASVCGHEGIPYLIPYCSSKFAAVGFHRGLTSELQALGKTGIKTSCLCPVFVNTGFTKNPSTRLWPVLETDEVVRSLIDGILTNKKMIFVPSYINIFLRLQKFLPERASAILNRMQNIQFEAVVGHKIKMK
# Test Name: HSD17b13 NAD(P)H-Glo biochemical assay
# Condition Context: 50 uM estradiol, 1 mM NAD+, NAD(P)H-Glo luminescence; read-out: HSD17β13 IC50
pIC50: −log10 of the molar value.

INSERT INTO assay_data (compound, assay_target, endpoint, reading) VALUES
  ('Cn1nc(-c2cc(C(F)(F)F)c(F)c(O)c2F)c2cnc(N3CCOC(c4nnc[nH]4)C3)nc21 (stereo not drawn) [Compound 18.78]', 'Recombinant human HSD17B13 enzyme (Homo sapiens)', 'pIC50', '6.00 to 7.00'),
  ('Cn1nc(-c2cc(C(F)(F)F)c(F)c(O)c2F)c2cnc(N3CCC4(CCC(=O)N4)CC3)nc21 [Compound 18.15]', 'Recombinant human HSD17B13 enzyme (Homo sapiens)', 'pIC50', '> 7.00'),
  ('Cn1nc(-c2cc(C(F)(F)F)c(F)c(O)c2F)c2cnc(N3CCN(C(=O)c4ccccn4)CC3)nc21 [Compound 18.121]', 'Recombinant human HSD17B13 enzyme (Homo sapiens)', 'pIC50', '6.00 to 7.00');

Exercise: Recorded pIC50 for CN(c1cc2c(cn1)c(-c1nc(C(F)(F)F)c(F)c(O)c1F)nn2C)C1CCOCC1 [Compound 22] , please?
Solution: 6.00 to 7.00

Exercise: Look up pIC50: CN(C)C1CCN(c2ncc3c(-c4cc(C(F)(F)F)c(F)c(O)c4F)nn(C)c3n2)CC1 [Compound 18.31]
Solution: 6.00 to 7.00

Exercise: Query (compound): Cn1nc(-c2cc(C(F)(F)F)c(F)c(O)c2F)c2cnc(N3CCC4(CCCC(=O)N4)CC3)nc21 [Compound 18.26] ; field requested: pIC50
Solution: > 7.00

Exercise: Please look up its pIC50: Cn1nc(-c2cc(C(F)(F)F)c(F)c(O)c2F)c2cnc(N3CCC(O)(c4ccccn4)CC3)nc21 [Compound 18.96]
Solution: > 7.00

Exercise: Consider the compound shown here: Cn1nc(-c2cc(C(F)(F)F)c(F)c(O)c2F)c2cnc(N3CCOC(C(=O)O)C3)nc21 (stereo not drawn) [Compound 18.43] What is its recorded pIC50?
Solution: 4.52 to 6.00

====

# Assay Target: Recombinant human HSD17B13 enzyme (Homo sapiens, UniProt Q7Z5P4)
# Test Name: HSD17b13 NAD(P)H-Glo biochemical assay
# Condition Context: 50 uM estradiol, 1 mM NAD+, NAD(P)H-Glo luminescence; read-out: HSD17β13 IC50
# Method: Example B-1: HSD17b13 NAD(P)H-Glo Biochemical Assay Recombinant human HSD17B13 enzyme. Substrate: estradiol (Sigma β-Estradiol E8875), 100 mM in DMSO. Cofactor: NAD+ Grade I free acid (Sigma 10127965001), 20 mM in H2O. […] Enzymatic activity detected by NAD(P)H-Glo™ Detection System (Promega G9062). […] HSD17b13 enzyme was diluted in 1× assay buffer to the desired enzyme concentration based on the specific activity of the enzyme lot. […] After incubating for 1 hour at RT, luminescence was measured.
Endpoint: IC50

Previously resolved entries follow.
INSERT INTO assay_data (compound, reading) VALUES
  ('Cn1nc(-c2cc(C(F)(F)F)c(F)c(O)c2F)c2cnc(N3CCC34CCOCC4)nc21', '< 100 nM'),
  ('CS(=O)(=O)N1CCN(c2cc3nc(-c4cc(O)c(F)c(F)c4)oc3cc2Cl)CC1', '100 to 1000 nM'),
  ('Cn1nc(-c2cc(C(F)(F)F)c(F)c(O)c2F)c2cnc(N3CCCOCC3)cc21', '< 100 nM'),
  ('Cn1nc(-c2cc(C(F)(F)F)c(F)c(O)c2F)c2cnc(N3[C@@H]4CNC[C@H]3COC4)cc21', '100 to 1000 nM');

Exercise: Entry CN(C)CCC1CN(c2ncc3c(-c4cc(C(F)(F)F)c(F)c(O)c4F)nn(C)c3n2)CCO1 (centres unmarked) has what IC50?
Solution: 100 to 1000 nM

Exercise: What measured IC50 goes with `Cn1nc(-c2cc(C(F)(F)F)c(F)c(O)c2F)c2ccc(N3CCOCC34CC4)cc21` ?
Solution: < 100 nM

Exercise: # get_value(readout='IC50', item= `Cn1nc(-c2ccc(F)c(O)c2)c2ccc(-c3ccc(O)c(Cl)c3)cc21` )
Solution: 100 to 1000 nM

Exercise: # input compound: `CCC1(O)CCN(c2ncc3c(-c4cc(C(F)(F)F)c(F)c(O)c4F)nn(C)c3n2)CC1` ; wanted: its IC50
Solution: < 100 nM

====

# Assay Target: Recombinant human HSD17B13 enzyme (Homo sapiens)
# Test Name: HSD17b13 NAD(P)H-Glo biochemical assay
# Condition Context: 50 uM estradiol, 1 mM NAD+, NAD(P)H-Glo luminescence; read-out: HSD17β13 IC50
Endpoint: IC50

INSERT INTO results (chem_smiles, endpoint, reading) VALUES
  ('Cn1nc(-c2cc(C(F)(F)F)c(F)c(O)c2F)c2cnc(N3CCNCC34CC4)cc21', 'IC50', '< 100 nM'),
  ('Cn1nc(-c2cc(C(F)(F)F)c(F)c(O)c2F)c2cnc(NC3CCOCC3)cc21', 'IC50', '< 100 nM'),
  ('CN(c1ccc2c(-c3cc(C(F)(F)F)c(F)c(O)c3F)nn(C)c2n1)C1CCOCC1', 'IC50', '< 100 nM');

Could you now consider this next compound?
Exercise: Consider the compound shown here: `CS(=O)(=O)N1CCN(c2ncc3c(-c4cc(O)c(F)c(C(F)(F)F)c4)n[nH]c3n2)CC1` What is its recorded IC50?
Solution: 100 to 1000 nM

====

# Assay Target: Recombinant human HSD17B13 enzyme (Homo sapiens, UniProt Q7Z5P4)
# Sequence (Q7Z5P4 20-300): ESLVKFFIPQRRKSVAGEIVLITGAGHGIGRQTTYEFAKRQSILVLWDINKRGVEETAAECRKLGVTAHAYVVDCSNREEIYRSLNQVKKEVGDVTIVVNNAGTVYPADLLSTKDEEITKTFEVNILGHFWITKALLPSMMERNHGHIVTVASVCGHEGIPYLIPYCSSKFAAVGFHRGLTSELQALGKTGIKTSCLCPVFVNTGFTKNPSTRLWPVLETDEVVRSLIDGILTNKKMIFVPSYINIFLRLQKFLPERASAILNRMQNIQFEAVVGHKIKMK
# Test Name: HSD17b13 NAD(P)H-Glo biochemical assay
# Condition Context: 50 uM estradiol, 1 mM NAD+, NAD(P)H-Glo luminescence; read-out: HSD17β13 IC50
Endpoint: IC50

INSERT INTO results (molecule, assay_target, endpoint, reading) VALUES
  ('Cn1nc(-c2cc(C(F)(F)F)c(F)c(O)c2F)c2cnc(N3CCOCC3CO)nc21 (centres unmarked)', 'Recombinant human HSD17B13 enzyme (Homo sapiens, UniProt Q7Z5P4)', 'IC50', '< 0.1 µM');

Exercise: Param item = `COCC1(Nc2cc3c(cn2)c(-c2cc(C(F)(F)F)c(F)c(O)c2F)nn3C)CCC1` ; retrieve measured IC50.
Solution: < 0.1 µM

Exercise: Suppose we examine the molecule `O=C(NC1(CO)CCC1)c1ccc2oc(-c3cc(C(F)(F)F)c(F)c(O)c3F)nc2c1` ; what IC50 value has been reported?
Solution: 0.1 to 1 µM

Exercise: // lookup IC50 for Cn1nc(-c2cc(C(F)(F)F)c(F)c(O)c2F)c2cnc(N3CCOCC3c3ccccc3)nc21 (centres unmarked)
Solution: < 0.1 µM

Exercise: For `CN1CCC2(CC1)CCN(c1ncc3c(-c4cc(C(F)(F)F)c(F)c(O)c4F)nn(C)c3n1)CC2` , what is its reported IC50?
Solution: < 0.1 µM

Exercise: For the molecule `COC1CCN(C(=O)c2ccc3oc(-c4cc(O)c(F)c(F)c4)nc3c2)CC1` , what IC50 is on record?
Solution: 1 to 30 µM

Exercise: Could you share which IC50 value was measured for `Cn1nc(-c2cc(C(F)(F)F)c(F)c(O)c2F)c2cnc(N3CCOC(C)(C)C3)cc21` ?
Solution: < 0.1 µM

Exercise: For Cn1nc(-c2cc(C(F)(F)F)c(F)c(O)c2F)c2cnc(N3CC4CC3CN4S(C)(=O)=O)nc21 (centres unmarked) , what is its reported IC50?
Solution: < 0.1 µM
